src = patent US5032398A

Molecular target: pertussis toxin (Bordetella pertussis, UniProt P04977)
Sequence (P04977 35-269 limits assumed): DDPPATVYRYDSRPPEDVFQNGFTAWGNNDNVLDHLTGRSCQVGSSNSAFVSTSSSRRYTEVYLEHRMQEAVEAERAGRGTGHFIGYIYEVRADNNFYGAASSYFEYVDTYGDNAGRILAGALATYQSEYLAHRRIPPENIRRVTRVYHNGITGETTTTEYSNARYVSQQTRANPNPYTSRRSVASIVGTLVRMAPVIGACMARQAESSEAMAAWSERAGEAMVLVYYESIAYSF
Assay: Inactivation of NADase activity by sulfhydryl reagents, 6 minutes or 18 hours at 0-4° (Example Eight)
Format: biochemical
Conditions: first incubation: ATP, DTT, CHAPS; 18 hours at 0-4°
Method: Pertussis toxin was incubated at 37° C. for fifteen minutes as described in Example Six, and then a second incubation was begun by adding 10 μl buffer A with or without 12.5 mM iodoacetate, mixing the contents of the tube and lowering the temperature to 30° C. After fifteen minutes, the tubes were shifted to an ice bath for ten minutes. A third incubation was then begun by adding 10 μl buffer A containing 200 mM DTT to those tubes containing iodoacetate to scavenge the iodoacetate. […]
Known percent of activity with no addition to second incubation of a selection of compounds
Number in %, nothing else.

CCN1C(=O)C=CC1=O [N-ethylmaleimide] | 10
O=C(O)CCl [chloroacetate] | 87
O=C(O)CI [iodoacetate] | 3

# ---- query compound ----
Find the measured percent of activity with no addition to second incubation of NC(=O)CCl [chloroacetamide] and report it.
36

* * *

biological target: pertussis toxin (Bordetella pertussis, UniProt P04977); assay: NADase activity in the presence of sulfhydryl reducing agents (Example Five); format: biochemical; conditions: read-out: concentration for half of the maximum effect (A0.5)
observable: pEC50
pEC50 is defined as minus the log10 of a concentration measured in mol/L.

Report measured pEC50 on pertussis toxin (Bordetella pertussis, UniProt P04977); entry: O[C@H](CS)[C@H](O)CS (racemic) [DTT, dithiothreitol]
3.70

* * *

target: pertussis toxin (Bordetella pertussis); assay: Screen of compounds at 1 mM for stimulation of the NADase activity of the toxin (Example Three); assay type: biochemical
observable: Stimulation (activation) of pertussis toxin, in words

O=P(O)(O)O [P, phosphate] | ineffective
Nc1ncnc2c1ncn2[C@@H]1O[C@H](COP(=O)(O)OP(=O)(O)O)[C@@H](O)[C@H]1O [ADP] | effective
Nc1ncnc2c1ncn2[C@@H]1O[C@H](COP(=O)(O)OP(=O)(O)OP(=O)(O)O)[C@@H](O)[C@H]1O [ATP] | effective
O=P(O)(O)OC[C@H]1OC(O)[C@H](O)[C@@H](O)[C@@H]1O (stereo partly drawn) [glucose-6-P, glucose 6-phosphate] | ineffective

Find the measured Stimulation (activation) of pertussis toxin, in words of O=P(O)(O)OP(=O)(O)O [pyro-P, pyrophosphate] and report it.
effective

Find the measured Stimulation (activation) of pertussis toxin, in words of Nc1ncnc2c1ncn2[C@@H]1O[C@H](CO)[C@@H](O)[C@H]1O [adenosine] and report it.
ineffective

* * *

biological target: UniProt:P04977; test: Activation constants (A0.5) of polyphosphates by NADase assay; format: biochemical; conditions: in the presence of a mild detergent; FIGS. 1A and 1B; read-out: activation constants (A0.5)
observable: EC50

O=P1([O-])OP(=O)([O-])OP(=O)([O-])O1.[Na+].[Na+].[Na+] [trimeta-P, trimetaphosphate] | ≥ 260 µM

# ---- query compound ----
Find the measured EC50 of O=c1ccn([C@@H]2O[C@H](COP(=O)(O)OP(=O)(O)OP(=O)(O)O)[C@@H](O)[C@H]2O)c(=O)[nH]1 and report it.
15 µM

* * *

target: pertussis toxin (Bordetella pertussis); test: Activation constants (A0.5) of polyphosphates by NADase assay; format: biochemical; conditions: in the presence of a mild detergent; read-out: activation constant
observable: EC50

Find the measured EC50 of Nc1ncnc2c1ncn2[C@@H]1O[C@H](COP(=O)(O)OP(=O)(O)OP(=O)(O)O)[C@@H](O)[C@H]1O [ATP] and report it.
~200 nM
